Tested on: HCV genotype 1b replicon
Assay: HCV replicon assay, cell ELISA with antibody to replicon-encoded NS3/4A (genotype 1b replicon)
Assay type: cell-based, hepatitis C virus
Details: Hepatitis C virus, 96 h, read-out: 1b IC50(nM), HCV genotype 1b replicon; 96 hours incubation; NS3/4A cell ELISA
Protocol: The HCV NS5B inhibitory activity of the present compounds may be tested using assays known in the art. The HCV NS5B polymerase inhibitors described herein have activities in a genotype 1b replicon assay as described in the Examples. […] By performing a series of such measurements at different inhibitor concentrations, the effective inhibitory concentration of the inhibitor (EC50 or EC90) is determined. […]
Overview of recorded IC50 for various compounds
measured_parameter: IC50 (nM)

{"columns": ["compound", "measured_parameter", "reported"],
 "data": [
  ["CNC(=O)c1c(-c2ccc(F)cc2)oc2cc(N(CC(C)N)S(C)(=O)=O)c(-c3cccc(-c4nc5ncccc5o4)c3)cc12 (stereo not drawn)", "IC50", 8.47],
  ["CNC(=O)c1c(-c2ccc(F)cc2)oc2cc(N(Cc3cccnc3)S(C)(=O)=O)c(-c3ccc(OC)c(-c4nc5c(F)cc(F)cc5o4)c3)cc12", "IC50", 6.05],
  ["CNC(=O)c1c(-c2ccc(F)cc2)oc2cc(N(CCF)S(C)(=O)=O)c(-c3cc(F)cc(-c4nc5ncccc5o4)c3)cc12", "IC50", 3.4],
  ["CNC(=O)c1c(-c2ccc(F)cc2)oc2cc(N(CCF)S(C)(=O)=O)c(-c3ccc(OC)c(-c4nc5ncccc5o4)c3)cc12", "IC50", 1.3],
  ["CNC(=O)c1c(-c2ccc(F)cc2)oc2cc(N(C)S(C)(=O)=O)c(-c3ccc(C(=O)N(C)C)c(-c4nc5c(F)cccc5o4)c3)cc12", "IC50", 2.52],
  ["CNC(=O)c1c(-c2ccc(F)cc2)oc2cc(N(C)S(C)(=O)=O)c(-c3ccc(-c4cnco4)c(-c4nc5c(Cl)cccc5o4)c3)cc12", "IC50", 3.01]
]}

====

Tested on: HCV genotype 1b replicon
Assay: HCV replicon assay, cell ELISA with antibody to replicon-encoded NS3/4A (genotype 1b replicon)
Format: cell-based, hepatitis C virus
Conditions: Hepatitis C virus, 96 h, read-out: 1b IC50(nM), HCV genotype 1b replicon; 96 hours incubation; NS3/4A cell ELISA
Overview of reported IC50 across a group of compounds:

{"columns": ["structure_as_smiles", "measurement_target", "IC50 / nM"],
 "data": [
  ["CNC(=O)c1c(-c2ccc(F)cc2)oc2cc(N(C)S(C)(=O)=O)c(-c3ccc(O)c(-c4nc5c(F)cccc5o4)c3)cc12", "HCV genotype 1b replicon", 9.32],
  ["CNC(=O)c1c(-c2ccc(F)cc2)oc2cc(N(C)S(C)(=O)=O)c(-c3ccc(OC)c(-c4csc5ncccc45)c3)cc12", "HCV genotype 1b replicon", 17.6],
  ["CNC(=O)c1c(-c2ccc(F)cc2)oc2cc(N(C)S(C)(=O)=O)c(-c3cc(OC)cc(-c4nc5ncccc5o4)c3)cc12", "HCV genotype 1b replicon", 3.1]
]}

====

// values below are reported IC50
Test system: HCV genotype 1b replicon
Test: HCV replicon assay, cell ELISA with antibody to replicon-encoded NS3/4A (genotype 1b replicon)
Assay type: cell-based, hepatitis C virus
Details: Hepatitis C virus, 96 h, read-out: 1b IC50(nM), HCV genotype 1b replicon; 96 hours incubation; NS3/4A cell ELISA

{"columns": ["compound", "IC50 (nM)"],
 "data": [
  ["CNC(=O)c1c(-c2ccc(F)cc2)oc2cc(N(CCC(C)(C)O)S(C)(=O)=O)c(-c3cc(F)cc(-c4nc5ncccc5o4)c3)cc12 [Example 879]", 2.6],
  ["CNC(=O)c1c(-c2ccc(F)cc2)oc2cc(N(C)S(C)(=O)=O)c(-c3ccc(OC)c(-c4nc5cc(F)cc(F)c5o4)c3)cc12 [Example 551]", 1.3],
  ["CNC(=O)c1c(-c2ccc(F)cc2)oc2cc(N(C)S(C)(=O)=O)c(-c3ccc(OC)c(-c4cc5cc(F)ccc5[nH]4)c3)cc12 [Example 860]", 1.9],
  ["CNC(=O)c1c(-c2ccc(F)cc2)oc2cc(N(CC3CCOC3)S(C)(=O)=O)c(-c3ccc(OC)c(-c4nc5c(F)cc(F)cc5o4)c3)cc12 (stereo not drawn) [Example 729]", 3.3],
  ["CNC(=O)c1c(-c2ccc(F)cc2)oc2cc(N(C)S(C)(=O)=O)c(-c3cc(OS(C)(=O)=O)cc(-c4nc5c(F)cccc5o4)c3)cc12 [Example 627]", 1.4],
  ["CNC(=O)c1c(-c2ccc(F)cc2)oc2cc(N(C)S(C)(=O)=O)c(-c3cccc(-c4cc5cc(F)ccc5n4CCO)c3)cc12 [Example 598]", 3.43]
]}
